- target of assay: GLP-1R (Homo sapiens)
- Construct: host or cells: GLP-1R CRE-bla CHO-K1 cells
- assay: EC20 GLP-1(9-36) PAM cAMP assay: dose response of compound in the presence of fixed concentration of GLP-1(9-36)
- Assay type: cell-based
- recorded conditions: dose response of compound in presence of fixed concentration of GLP-1(9-36), GLP-1R CRE-bla CHO-K1 cells, read-out: EC20 GLP-1(9-36) PAM EC50
Form field: EC50 (one value per entry).

Below, 2 molecules whose answers are already recorded.
CCC/C=C\CCOc1ccc(-c2cnc(-c3ccc(C[C@H](NC(=O)c4ccc(C(C)(C)C)cc4)C(=O)NCCC(=O)O)cc3)nc2)cc1	2500 to 5000 nM
CCCCCCCOc1ccc(-c2cnc(-c3ccc(C[C@H](NC(=O)c4ccc(C(C)(C)C)s4)C(=O)N[C@H]4C[C@H](C(=O)O)C4)cc3)nc2)cc1	800 to 2500 nM

Now for another entry.
Field EC50 (entry "Cc1cc(-c2cnc(-c3ccc(C[C@H](NC(=O)c4ccc(C(C)(C)C)s4)C(=O)N4CCC[C@H]4C(=O)O)cc3)nc2)ccc1OC(C)C" ) reads 800 to 2500 nM

---

- target of assay: GLP-1R (Homo sapiens, UniProt P43220)
- Construct: host or cells: GLP-1R CRE-bla CHO-K1 cells
- Sequence (P43220 24-463): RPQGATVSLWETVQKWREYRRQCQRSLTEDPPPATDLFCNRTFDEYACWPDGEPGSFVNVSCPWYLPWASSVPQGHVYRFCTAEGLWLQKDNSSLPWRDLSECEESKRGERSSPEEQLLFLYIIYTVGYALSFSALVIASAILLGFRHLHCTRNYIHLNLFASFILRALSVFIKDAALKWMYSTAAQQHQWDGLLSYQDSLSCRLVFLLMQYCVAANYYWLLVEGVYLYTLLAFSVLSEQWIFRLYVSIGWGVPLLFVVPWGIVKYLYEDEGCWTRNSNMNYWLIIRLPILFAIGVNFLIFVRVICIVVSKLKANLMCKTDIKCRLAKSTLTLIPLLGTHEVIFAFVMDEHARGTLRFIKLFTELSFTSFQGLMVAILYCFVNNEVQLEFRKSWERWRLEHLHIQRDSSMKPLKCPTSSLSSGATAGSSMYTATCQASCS
- Sequence (P01275 100-127 partner limits assumed): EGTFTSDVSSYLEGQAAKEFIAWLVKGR
- assay: EC20 GLP-1(9-36) PAM cAMP assay: dose response of compound in the presence of fixed concentration of GLP-1(9-36)
- Type: cell-based
- recorded conditions: dose response of compound in presence of fixed concentration of GLP-1(9-36), GLP-1R CRE-bla CHO-K1 cells, read-out: EC20 GLP-1(9-36) PAM EC50
pEC50: −log10 of the molar value.
measured metric: pEC50

# annotated cases, reported pEC50 shown
CCCCCCCOc1ccc(-c2cnc(-c3ccc(C[C@H](NC(=O)c4cnn(C(C)(C)C)c4)C(=O)N4CCC[C@H]4C(=O)O)cc3)nc2)cc1	5.60 to 6.10
CCCCCCCOc1ccc(-c2cnc(-c3ccc(C[C@H](NC(=O)c4ccc(C(C)(C)C)s4)C(=O)Nc4ccc(C(F)(F)F)cc4)cc3)nc2)cc1	5.00 to 5.30
CCCCCCCOc1ccc(-c2cnc(-c3ccc(C[C@H](NC(=O)c4ccc(C(C)(C)C)s4)C(=O)N4CC[C@H](C(=O)NS(C)(=O)=O)C4)cc3)nc2)cc1	5.60 to 6.10
CCC(C)COc1ccc(-c2cnc(-c3ccc(C[C@H](NC(=O)c4ccc(C(C)(C)C)cc4)C(=O)NCCC(=O)O)cc3)nc2)cc1 (stereo partly drawn)	5.00 to 5.30
C[C@@H](NC(=O)[C@H](Cc1ccc(-c2ncc(-c3ccc(-c4ccc(OC(F)(F)F)cc4F)cc3)cn2)cc1)NC(=O)c1ccc(C(C)(C)C)s1)C(=O)O	> 6.10
CCCCCCCOc1ccc(-c2cnc(-c3ccc(C[C@H](NC(=O)c4ccc(C(C)(C)C)s4)C(=O)N4CC(N(C)C)C4)cc3)nc2)cc1	5.30 to 5.60
C[C@@H](NC(=O)[C@H](Cc1ccc(-c2ncc(-c3ccc4c(C5CCCCO5)c(O)ccc4c3)cn2)cc1)NC(=O)c1ccc(C(C)(C)C)s1)C(=O)O (stereo partly drawn)	5.30 to 5.60
CCCCCCCOc1ccc(-c2cnc(-c3ccc(C[C@H](NC(=O)c4ccc(C(C)(C)C)s4)C(=O)N4CC(C(=O)NS(C)(=O)=O)C4)cc3)nc2)cc1	> 6.10

Looking up "CCCCCCCOc1ccc(-c2cnc(-c3ccc(C[C@H](NC(=O)c4ccc(C(C)(C)C)s4)C(=O)N4CC5(CC(C(=O)O)C5)C4)cc3)nc2)cc1" , I see its pEC50 listed as 5.60 to 6.10

// recorded pEC50 for CCCCCCCOc1ccc(-c2cnc(-c3ccc(C[C@H](NC(=O)c4ccc(C(C)(C)C)s4)C(=O)N4CCCC4CC(=O)O)cc3)nc2)cc1 (stereo partly drawn) : 5.30 to 5.60

pEC50 reported for this compound "CCCCCCCOc1ccc(-c2cnc(-c3ccc(C[C@H](NC(=O)c4cnn(C(C)(C)C)c4C)C(=O)N4CCC[C@H]4C(=O)O)cc3)nc2)cc1" : 5.30 to 5.60

For "CC(C)(C)c1ccc(C(=O)N[C@@H](Cc2ccc(-c3ncc(-c4ccc(-c5ccccc5)cc4)cn3)cc2)C(=O)N2CC(C(=O)O)C2)s1" the compound record lists pEC50 as > 6.10
